System: Aspergillus terreus
Test: Antimicrobial activity against Aspergillus terreus environmental isolate after 48 hrs by EUCAST test
Type: functional
Listed here: items and their measured MIC50.

[
  {
    "compound": "C[C@@H](c1ncncc1F)[C@](O)(Cn1cncn1)c1ccc(F)cc1F",
    "MIC50 (µg/mL)": 1
  },
  {
    "compound": "CCC(C)n1ncn(-c2ccc(N3CCN(c4ccc(OCC5COC(Cn6cncn6)(c6ccc(Cl)cc6Cl)O5)cc4)CC3)cc2)c1=O (centres undefined)",
    "MIC50 (µg/mL)": 0.125
  },
  {
    "compound": "CC[C@@H]([C@H](C)O)n1ncn(-c2ccc(N3CCN(c4ccc(OC[C@@H]5CO[C@@](Cn6cncn6)(c6ccc(F)cc6F)C5)cc4)CC3)cc2)c1=O",
    "MIC50 (µg/mL)": 0.12
  },
  {
    "compound": "CN(C/C=C/C#CC(C)(C)C)Cc1cccc2ccccc12",
    "MIC50 (µg/mL)": 0.25
  }
]
